The origin of these recorded values is patent US20180057604A1.

Measured Kd accompanies every entry in the list below.
Molecular target: T1, cyno TfR extracellular domain (analogous construct to human TfR ecd) (cynomolgus monkey, UniProt Q5RDH6 87-760 (Pongo abelii entry))
T1 construct: also called cynoTfR ecd
T1 chain: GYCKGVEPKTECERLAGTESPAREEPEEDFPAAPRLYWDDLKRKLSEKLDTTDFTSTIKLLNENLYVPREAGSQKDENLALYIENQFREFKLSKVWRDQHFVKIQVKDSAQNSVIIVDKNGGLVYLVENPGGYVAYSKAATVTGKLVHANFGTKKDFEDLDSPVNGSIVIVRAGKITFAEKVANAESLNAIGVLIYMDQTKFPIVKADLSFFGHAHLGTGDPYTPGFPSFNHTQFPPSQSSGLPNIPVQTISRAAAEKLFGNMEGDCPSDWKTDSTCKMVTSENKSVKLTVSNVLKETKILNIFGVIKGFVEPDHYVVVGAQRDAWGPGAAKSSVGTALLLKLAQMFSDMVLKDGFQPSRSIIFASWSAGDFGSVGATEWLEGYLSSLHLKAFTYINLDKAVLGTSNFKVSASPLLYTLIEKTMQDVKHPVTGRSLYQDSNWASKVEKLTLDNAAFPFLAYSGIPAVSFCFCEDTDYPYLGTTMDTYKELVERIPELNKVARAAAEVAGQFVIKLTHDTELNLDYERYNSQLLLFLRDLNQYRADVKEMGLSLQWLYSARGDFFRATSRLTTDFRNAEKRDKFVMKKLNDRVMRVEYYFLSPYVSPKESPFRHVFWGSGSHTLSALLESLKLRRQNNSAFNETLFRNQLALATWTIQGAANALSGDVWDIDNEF
Assay: SPR, TfR captured by anti-His, Fab injected;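 also: single cycle kinetics with a Fab dilution series, fitted by a one-to-one Langmuir model or a steady state model, KD taken as koff over kon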
Use nM as the unit, but write only the number.

[[record]]
binder = "Mu7A4.Fab (Fab, V domains shown, Fab; also called mouse 7A4 Fab) VH: QVQLQQSGPELVRPGVSVKISCKGSGYTFTDYAMHWVKQSHAKSLEWIGGISTYFGRTNYNQKFKGRATMTVDKSSSTAYMELARLTSEDSALYYCARGLSGNYVMDYWGQGTSVTVSS VL: DIVLTQSPASLAVSLGQRATISCRASESVDDYGNSFMHWYQQKPGQPPKLLIYRASNLESGIPARFSGSGSRTDFTLTINPVEADDVATYYCQQSNEAPPTFGGGTKLEIR"
observedvalue = 0.741


Please find the next binder below.
input: # get_value(readout='Kd', item= Hu7A4.v12.Fab (Fab, V domains shown, Fab) VH: EVQLVQSGAEVKKPGASVKVSCKGSGYTFTDYAMHWVRQAPGQGLEWMGGISTYFGRTNYNQKFKGRVTMTVDTSISTAYMELSRLRSDDTAVYYCARGLSGNYVMDYWGQGTTVTVSS VL: DIVMTQSPDSLAVSLGERATINCRASESVDSYGNSFMHWYQQKPGQPPKLLIYRASNLESGVPDRFSGSGSRTDFTLTISSLQAEDVAVYYCQQSNEGPPTFGQGTKLEIK )
output: 1.9
